experimentalSystem: T1, human chemokine (C-C motif) receptor 8 (CCR8) protein (human, UniProt P51685 1-355)
T1 construct: whole, on cells; also called human CCR8
assayRemarks: cell binding, CCR8-expressing CHO-K1 cells, curve fit
# Bottom values compiled below
I'd appreciate a reply containing only the number, no unit.

[Q] Could you share which Bottom value was measured for 137-H3L2 (LM-108) (antibody, V domains shown, Humanized 137D1H10; Detected with anti-human IgG) VH: EVQLVESGGGLVQPGGSLKLSCAASGFTFNTYAMNWVRQASGKGLEWVARIRSKANNYATYYADSVKDRFTISRDDSKNTLYLQMNNLKTEDTAVYYCVRDRSRGEDYAMDYWGQGTLVTVSS VL: DIVMTQSPLSLPVTPGEPASISCRSSKSLLHSNANTYLYWFLQKPGQSPQLLIYRMSNLASGVPDRFSGSGSGTAFTLKISRVEAEDVGVYYCMQHLEYPFTFGQGTKLEIK ?
[A] 4260

[Q] Here is the next binder: 137-H2L2 (antibody, V domains shown, Humanized 137D1H10) VH: EVQLVESGGGLVQPGGSLKLSCAASGFTFNTYAMNWVRQASGKGLEWVGRIRSKANNYATYYADSVKDRFTISRDDSKNTAYLQMNNLKTEDTAVYYCVRDRSRGEDYAMDYWGQGTLVTVSS VL: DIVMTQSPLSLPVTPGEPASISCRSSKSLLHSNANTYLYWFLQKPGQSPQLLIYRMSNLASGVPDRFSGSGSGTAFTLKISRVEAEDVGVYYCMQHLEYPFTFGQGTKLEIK
[A] 2550
